Numbers sourced from paper PMC11356900.

Here the recorded cell proliferation is given for each entry.
test system: HeLa cell line; assay: MTT cytotoxicity assay; type: cell-based; conditions: 24h, 25 µM, Repeat No 1
MEASURE NAME: cell proliferation

# COMPOUND, SYSTEM TESTED, RESULT
data = [
    ("O=C(N/N=C/c1cc(Cl)cc(I)c1O)c1ccc(I)cc1 [Compound 27]", "HeLa cell line", "69%"),
    ("O=C(N/N=C/c1cc(I)cc(I)c1O)c1ccccc1I [Compound 14]", "HeLa cell line", "93%"),
    ("O=C(N/N=C/c1cc(Cl)cc(I)c1O)c1cccc(I)c1 [Compound 20]", "HeLa cell line", "81%"),
    ("O=C(N/N=C/c1cc(Br)cc(Br)c1O)c1cccc(I)c1 [Compound 21]", "HeLa cell line", "89%"),
]

###

Here the recorded cell proliferation is given for each entry.
test system: L929 cell line; assay: MTT cytotoxicity assay; format: cell-based, mouse; conditions: L929, 48h, 50 µM, Repeat No 2

# COMPOUND, cell proliferation [%]
records = [
    ("O=C(N/N=C/c1cc(Cl)cc(I)c1O)c1ccc(I)cc1 [Compound 27]", 91),
    ("O=C(N/N=C/c1cc(Cl)cc(I)c1O)c1cccc(I)c1 [Compound 20]", 99),
    ("O=C(N/N=C/c1cc(I)cc(I)c1O)c1ccccc1I [Compound 14]", 98),
    ("O=C(N/N=C/c1cc(Br)cc(Br)c1O)c1cccc(I)c1 [Compound 21]", 88),
]

###

Here the recorded cell proliferation is given for each entry.
system: HeLa cell line; assay: MTT cytotoxicity assay; type: cell-based; conditions: 24h, 75 µM, Repeat No 1

# GIVEN SMILES, cell proliferation (%)
measured = [
    ("O=C(N/N=C/c1cc(Br)cc(Br)c1O)c1cccc(I)c1", 104),
    ("O=C(N/N=C/c1cc(Cl)cc(I)c1O)c1ccc(I)cc1", 72),
    ("O=C(N/N=C/c1cc(Cl)cc(I)c1O)c1cccc(I)c1", 85),
    ("O=C(N/N=C/c1cc(I)cc(I)c1O)c1ccccc1I", 98),
]

###

system: Gram-positive bacteria; experiment: Broth microdilution, summary over reference Gram-positive bacteria; format: cell-based; conditions: range over the reference Gram-positive bacteria; read-out: MIC

# GIVEN SMILES, MIC
measured = [
    ("O=C(N/N=C/c1cc(Cl)cc(I)c1O)c1ccccc1I", "31.2 to 1000 µg/mL"),
    ("O=C(N/N=C/c1ccccc1O)c1ccc(I)cc1", "500 to 1000 µg/mL"),
    ("O=C(N/N=C/c1cc(I)cc(I)c1O)c1ccccc1I", "62.5 to 500 µg/mL"),
    ("O=C(N/N=C/c1cc(Cl)cc(I)c1O)c1ccc(I)cc1", "31.2 to 125 µg/mL"),
]

###

system: L929 cell line; assay: MTT cytotoxicity assay; type: cell-based, mouse; conditions: L929, 24h, 25 µM, Repeat No 2
MEASURE NAME: cell proliferation (%)

# MOLECULE, UNIT, NUMERIC RESULT
measured = [
    ("O=C(N/N=C/c1cc(Br)cc(Br)c1O)c1cccc(I)c1 [Compound 21]", "%", 97),
    ("O=C(N/N=C/c1cc(I)cc(I)c1O)c1ccccc1I [Compound 14]", "%", 89),
    ("O=C(N/N=C/c1cc(Cl)cc(I)c1O)c1ccc(I)cc1 [Compound 27]", "%", 92),
    ("O=C(N/N=C/c1cc(Cl)cc(I)c1O)c1cccc(I)c1 [Compound 20]", "%", 95),
]
